This section presents compounds with their documented refractive index values.
# TEST PROTOCOL: refractive index (Na D-line) (dimensionless)
# REPORTED CONDITIONS: 293.1 K; 101.33 kPa; Liquid; Standard Abbe refractometry
± gives the expanded uncertainty stated by the source.

{"COMPOUND": "CCCCCCCC[n+]1cc(C)cc(C)c1.N#C[N-]C#N [3,5-dimethyl-1-octylpyridinium dicyanamide]", "refractive index": "1.5196 ± 0.0016"}
{"COMPOUND": "CCCC[n+]1cccc(C)c1C.N#C[N-]C#N [1-butyl-2,3-dimethylpyridinium dicyanamide]", "refractive index": "1.5403 ± 0.0016"}
{"COMPOUND": "CCCCCCCC[n+]1cccc(C)c1C.N#C[S-] [2,3-dimethyl-1-octylpyridinium thiocyanate]", "refractive index": "1.5489 ± 0.0016"}
{"COMPOUND": "CCCCCCCC[n+]1cc(C)cc(C)c1.O=S(=O)([N-]S(=O)(=O)C(F)(F)F)C(F)(F)F", "refractive index": "1.4526 ± 0.01"}
{"COMPOUND": "CCCC[n+]1cccc(C)c1C.O=S(=O)([O-])C(F)(F)F", "refractive index": "1.4748 ± 0.0016"}
{"COMPOUND": "CCCCCCCC[n+]1cccc(C)c1C.O=S(=O)([N-]S(=O)(=O)C(F)(F)F)C(F)(F)F", "refractive index": "1.4571 ± 0.01"}
{"COMPOUND": "CCCC[n+]1cc(C)cc(C)c1.N#C[N-]C#N [1-butyl-3,5-dimethylpyridinium dicyanamide]", "refractive index": "1.5278 ± 0.0016"}

Source of measurements: the NIST ThermoML archive (doi:10.1021/je9009283)
